Reference source: patent US8278345B2

target: hQC (Homo sapiens, UniProt Q16769); experiment: Inhibitor assay for glutaminyl cyclase activity (fluorometric, H-Gln-βNA / H-Gln-AMC); assay type: biochemical; settings: read-out: IC50
Sequence (Q16769 29-361): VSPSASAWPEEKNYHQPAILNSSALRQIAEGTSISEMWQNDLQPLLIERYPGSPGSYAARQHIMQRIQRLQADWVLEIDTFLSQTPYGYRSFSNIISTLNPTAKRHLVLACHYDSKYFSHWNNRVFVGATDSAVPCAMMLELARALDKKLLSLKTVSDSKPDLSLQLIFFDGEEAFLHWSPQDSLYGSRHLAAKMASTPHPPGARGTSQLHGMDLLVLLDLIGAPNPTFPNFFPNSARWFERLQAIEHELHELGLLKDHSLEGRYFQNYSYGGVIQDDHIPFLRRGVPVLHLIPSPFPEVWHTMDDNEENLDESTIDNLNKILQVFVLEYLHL
pIC50: −log10 of the molar value.
Result type: pIC50

1. Cc1cc(C2C(C(C)C)=C(O)C(=O)N2c2ccc3[nH]cnc3c2)oc1C (centres unmarked) [Compound 388] = 5.50
2. O=C1C(O)=C(c2c[nH]c3ccccc23)C(c2ccco2)N1CCCn1ccnc1 (centres unmarked) [Compound 140] = 6.40
3. CC1=C(O)C(=O)N(CCCn2ccnc2)C1c1c[nH]c2cc(C)ccc12 (centres unmarked) [Compound 37] = 6.40
4. O=C1C(O)=C(c2ccc(O)cc2)C(c2cccc(O)c2)N1CCCn1ccnc1 (centres unmarked) [Compound 182] = 7.40
5. O=C1C(O)=C(c2ccc(O)cc2)C(c2ccccc2O)N1CCCn1ccnc1 (centres unmarked) [Compound 157] = 7.40
6. O=C(C1=C(O)C(=O)N(c2ccc3[nH]cnc3c2)C1c1ccc[nH]1)C1CCCCC1 (centres unmarked) [Compound 452] = 5.29
7. O=C(O)c1ccc(C2C(c3c[nH]c4ccccc34)=C(O)C(=O)N2c2ccc3[nH]cnc3c2)o1 (centres unmarked) [Compound 451] = 5.59
8. Cc1cc(C2C(c3cccc(O)c3)=C(O)C(=O)N2c2ccc3[nH]cnc3c2)oc1C (centres unmarked) [Compound 307] = 5.55

----------
Each item that follows carries a reported IC50.
target: hQC (Homo sapiens, UniProt Q16769); assay: Inhibitor assay for glutaminyl cyclase activity (fluorometric, H-Gln-βNA / H-Gln-AMC); type: biochemical; details: read-out: IC50
Result type: IC50

1. O=C1C(O)=C(c2c[nH]c3ccccc23)C(C2CCC=CO2)N1CCCn1ccnc1 (stereo not shown) = 40 nM
2. CCCC(=O)C1=C(O)C(=O)N(c2ccc3[nH]cnc3c2)C1c1ccc(O)c(Br)c1 (stereo not shown) = 400 nM
3. O=C1C(O)=C(c2ccccc2)C(c2ccc(CO)o2)N1CCCn1ccnc1 (stereo not shown) = 1300 nM
4. CC1=C(O)C(=O)N(CCCn2ccnc2)C1c1ccco1 (stereo not shown) = 400 nM
5. CC(C)(C)C(=O)C1=C(O)C(=O)N(c2ccc3[nH]cnc3c2)C1c1cccc(F)c1F (stereo not shown) = 4090 nM
6. CC1=C(O)C(=O)N(CCCn2ccnc2)C1c1cccs1 (stereo not shown) = 3100 nM
7. O=C1C(O)=C(c2ccccc2)C(c2ccc(O)cc2)N1CCCn1ccnc1 (stereo not shown) = 400 nM
8. Cc1ccc(O)c(C2C(C(=O)C3CC3)=C(O)C(=O)N2c2ccc3[nH]cnc3c2)c1 (stereo not shown) = 3280 nM
9. Cc1ccc(C2C(c3cccc(O)c3)=C(O)C(=O)N2CCCn2ccnc2)cc1 (stereo not shown) = 2200 nM
10. O=C1C(O)=C(c2ccccc2)C(CO)N1CCCn1ccnc1 (stereo not shown) = 40 nM
11. CC(C)(C)C(=O)C1=C(O)C(=O)N(c2ccc3[nH]cnc3c2)C1c1cc2ccccc2nc1Cl (stereo not shown) = 4450 nM
12. CC(C)C1=C(O)C(=O)N(CCCn2ccnc2)C1c1ccccn1 (stereo not shown) = 4900 nM
13. CCC1=C(O)C(=O)N(c2ccc3[nH]cnc3c2)C1c1c(F)ccc(Cl)c1F (stereo not shown) = 3820 nM
14. CCCCCC1=C(O)C(=O)N(CCCn2ccnc2)C1c1ccc(C)c(C)c1 (stereo not shown) = 40 nM
15. Cc1[nH]c2ccccc2c1C1C(c2c[nH]c3ccccc23)=C(O)C(=O)N1c1ccc2[nH]cnc2c1 (stereo not shown) = 5710 nM
16. O=C(C1=C(O)C(=O)N(c2ccc3[nH]cnc3c2)C1c1ccc(CO)o1)C1CC1 (stereo not shown) = 310 nM
17. CCCCCC1C(c2ccc(O)cc2)=C(O)C(=O)N1CCCn1ccnc1 (stereo not shown) = 40 nM
18. CCCCCC1C(c2ccccc2)=C(O)C(=O)N1CCCn1ccnc1 (stereo not shown) = 40 nM
19. CC(=O)C1=C(O)C(=O)N(c2ccc3[nH]cnc3c2)C1C1COC(C)(C)O1 (stereo not shown) = 9850 nM
20. O=C(C1=C(O)C(=O)N(c2ccc3[nH]cnc3c2)C1c1ccc(CO)o1)c1cccs1 (stereo not shown) = 1570 nM
21. CCCCCC1=C(O)C(=O)N(CCCn2ccnc2)C1c1ccc(C)o1 (stereo not shown) = 40 nM
22. O=C(O)c1ccc(C2C(C(=O)C3CC3)=C(O)C(=O)N2c2ccc3[nH]cnc3c2)o1 (stereo not shown) = 400 nM
23. O=C(C1=C(O)C(=O)N(c2ccc3[nH]cnc3c2)C1c1ccc(CO)o1)C1CCCCC1 (stereo not shown) = 400 nM
24. O=C1C(O)=C(c2c[nH]c3ccccc23)C(c2ccccn2)N1CCCn1ccnc1 (stereo not shown) = 40 nM
25. Cc1ccc(C2C(C(=O)c3ccc(Cl)cc3)=C(O)C(=O)N2c2ccc3[nH]cnc3c2)o1 (stereo not shown) = 2110 nM
26. O=C1C(O)=C(c2ccccc2)C(c2ccc(Cl)c(Cl)c2)N1c1ccc2[nH]cnc2c1 (stereo not shown) = 1570 nM
27. CC1=C(O)C(=O)N(CCCn2ccnc2)C1C1CC1 (stereo not shown) = 2200 nM
28. O=C1C(O)=C(c2c[nH]c3ccccc23)C(C(F)(F)F)N1CCCn1ccnc1 (stereo not shown) = 1300 nM
29. CCCCCC1=C(O)C(=O)N(CCCn2ccnc2)C1c1ccccn1 (stereo not shown) = 400 nM
30. Cc1ccc2occ(C3C(c4c[nH]c5ccccc45)=C(O)C(=O)N3c3ccc4[nH]cnc4c3)c(=O)c2c1 (stereo not shown) = 4990 nM
31. O=C1C(O)=C(c2ccc(O)cc2)C(c2cc(Cl)cc(Cl)c2O)N1CCCn1ccnc1 (stereo not shown) = 40 nM
32. CC(=O)C1=C(O)C(=O)N(c2ccc3[nH]cnc3c2)C1C1=CCCCC1 (stereo not shown) = 1840 nM
33. CCCCC1C(c2ccccc2)=C(O)C(=O)N1CCCn1ccnc1 (stereo not shown) = 40 nM
34. O=C(C1=C(O)C(=O)N(c2ccc3[nH]cnc3c2)C1c1ccc(Cl)c(C(F)(F)F)c1)C1CCCCC1 (stereo not shown) = 2560 nM

----------
target: hQC (Homo sapiens); assay: Inhibitor assay for glutaminyl cyclase activity (fluorometric, H-Gln-βNA / H-Gln-AMC); assay type: biochemical; details: read-out: IC50
Each item that follows carries a reported IC50.
Result type: IC50 (µM)

1) CCCC(=O)C1=C(O)C(=O)N(c2ccc3[nH]cnc3c2)C1C1CC1 (stereo not shown) = 2.2
2) CCCC(=O)C1=C(O)C(=O)N(c2ccc3[nH]cnc3c2)C1c1cc[nH]n1 (stereo not shown) = 4
3) CC(=O)C1=C(O)C(=O)N(c2ccc3[nH]cnc3c2)C1CCC(=O)O (stereo not shown) = 9.49
4) Cc1cccc(C2C(c3ccc(O)cc3)=C(O)C(=O)N2c2ccc3[nH]cnc3c2)c1 (stereo not shown) = 1.39
5) O=C1C(O)=C(c2cccc(O)c2)C(c2ccc(O)c(Br)c2)N1c1ccc2[nH]cnc2c1 (stereo not shown) = 5.71
6) CCCC1C(c2c[nH]c3ccccc23)=C(O)C(=O)N1CCCn1ccnc1 (stereo not shown) = 0.4
7) O=C1C(O)=C(c2ccccc2)C(c2ccc(Cl)c(C(F)(F)F)c2)N1c1ccc2[nH]cnc2c1 (stereo not shown) = 1.75
8) O=C1C(O)=C(c2cccc(O)c2)C(c2ccc3[nH]ccc3c2)N1CCCn1ccnc1 (stereo not shown) = 1.3
9) O=C1C(O)=C(c2ccccc2)C(c2c(O)ccc3ccccc23)N1CCCn1ccnc1 (stereo not shown) = 0.4
10) CC(=O)C1=C(O)C(=O)N(c2ccc3[nH]cnc3c2)C1c1nccs1 (stereo not shown) = 1.03
11) CC(=O)C1=C(O)C(=O)N(c2ccc3[nH]cnc3c2)C1C1CC=CCC1 (stereo not shown) = 9.58
12) CC(C)/C=C/C1C(c2c[nH]c3ccccc23)=C(O)C(=O)N1CCCn1ccnc1 (stereo not shown) = 1.3
13) O=C1C(O)=C(c2ccccc2)C(c2ccccc2)N1CCCn1ccnc1 (stereo not shown) = 3.1
14) O=C(O)CC1=C(O)C(=O)N(c2ccc3[nH]cnc3c2)C1c1c(F)ccc(Cl)c1F (stereo not shown) = 4.54
15) CC1=C(O)C(=O)N(c2ccc3[nH]cnc3c2)C1c1ccc2cccc(O)c2n1 (stereo not shown) = 2.83
16) CC1=C(O)C(=O)N(CCCn2ccnc2)C1c1ccccn1 (stereo not shown) = 2.2
17) CCC1=C(O)C(=O)N(CCCn2ccnc2)C1c1ccc(C)c(C)c1 (stereo not shown) = 0.4
18) CC(C)(C)C(=O)C1=C(O)C(=O)N(c2ccc3[nH]cnc3c2)C1c1ccc2cccc(O)c2n1 (stereo not shown) = 1.03
19) CCC/C=C/C1C(CC)=C(O)C(=O)N1CCCn1ccnc1 (stereo not shown) = 3.1
20) O=C1C(O)=C(c2ccccc2)C(c2cc(F)cc(F)c2F)N1c1ccc2[nH]cnc2c1 (stereo not shown) = 0.004
21) O=C1C(O)=C(c2c[nH]c3ccccc23)C(C2=CCCCC2)N1CCCn1ccnc1 (stereo not shown) = 0.4
22) CCCCCC1=C(O)C(=O)N(CCCn2ccnc2)C1C (stereo not shown) = 0.04
23) O=C1C(O)=C(c2ccccc2)C(c2cccc(O)c2)N1CCCn1ccnc1 (stereo not shown) = 0.4
24) O=C1C(O)=C(c2ccccc2)C(c2cnc3ccccc3c2)N1c1ccc2[nH]cnc2c1 (stereo not shown) = 0.004
25) CC(=O)C1=C(O)C(=O)N(c2ccc3[nH]cnc3c2)C1c1ccc2nonc2c1 (stereo not shown) = 0.004
26) CCCCCC1=C(O)C(=O)N(CCCn2ccnc2)C1c1ccccc1F (stereo not shown) = 0.04
27) CCCC1C(C(C)C)=C(O)C(=O)N1CCCn1ccnc1 (stereo not shown) = 5.8
28) CCC1=C(O)C(=O)N(c2ccc3[nH]cnc3c2)C1c1cc(Br)c(O)c(Br)c1 (stereo not shown) = 2.29
29) Cc1ccc(C2C(C(C)C)=C(O)C(=O)N2CCCn2ccnc2)o1 (stereo not shown) = 1.3
30) CC(C)C1=C(O)C(=O)N(CCCn2ccnc2)C1c1cccc(Cl)c1 (stereo not shown) = 3.1
31) O=C1C(O)=C(c2c[nH]c3ccccc23)C(Cc2ccccc2)N1CCCn1ccnc1 (stereo not shown) = 0.4
32) O=C1C(O)=C(c2c[nH]c3ccccc23)C(c2coc3ccccc3c2=O)N1c1ccc2[nH]cnc2c1 (stereo not shown) = 4.72
33) CC(=O)C1=C(O)C(=O)N(c2ccc3[nH]cnc3c2)C1c1ccsc1 (stereo not shown) = 0.76
34) CCCCC1C(C)=C(O)C(=O)N1CCCn1ccnc1 (stereo not shown) = 2.2
